Entries and their SI = human THP-1-derived macrophage CC50/axenic amastigote EC50
tested on: human THP-1-derived macrophages; assay: Cytotoxicity assay on human THP-1-derived macrophages (MTT); format: cell-based
measureName: SI = human THP-1-derived macrophage CC50/axenic amastigote EC50

molecule	qual	quantitativeReadout
O=C(O)c1ccc(N(Cc2ccc(C(=O)NCCc3ccc(F)cc3)o2)C(=O)N2CCN(CCCc3ccccc3)CC2)cc1	>	2
O=C(NCCc1ccc(F)cc1)c1ccc(CN(C(=O)N2CCN(CCCc3ccccc3)CC2)c2ccc(F)cc2)o1	=	0.8
O=C(Nc1ccc(F)cc1)N1CCN(CCCc2ccccc2)CC1	=	0.8
O=C(NCCc1ccc(F)cc1)c1ccc(CN(C(=O)N2CC[N+](CCCc3ccccc3)(Cc3ccc(Cl)c(Cl)c3)CC2)c2ccc(F)cc2)o1.[I-]	=	1.4
O=C(NCCc1ccc(F)cc1)c1ccc(CNC(=O)N2CCN(CCCc3ccccc3)CC2)o1	=	2.7
O=C(NCCc1ccc(F)cc1)c1ccc(CNC(=O)N2CCN(Cc3ccc(Cl)c(Cl)c3)CC2)o1	=	1.9
C[N+]1(CCCc2ccccc2)CCN(C(=O)N(Cc2ccc(C(=O)NCCc3ccc(F)cc3)o2)c2ccc(F)cc2)CC1.[I-]	=	3.7
C[C@@H]1[C@H](O)[C@@H](C)/C=C/C=C/C=C/C=C/C=C/C=C/C=C/[C@H](O[C@@H]2O[C@H](C)[C@@H](O)[C@H](N)[C@@H]2O)C[C@@H]2O[C@](O)(C[C@@H](O)C[C@@H](O)[C@H](O)CC[C@@H](O)C[C@@H](O)CC(=O)O[C@H]1C)C[C@H](O)[C@H]2C(=O)O [AmpB, Amphotericin B, reference compound]	=	26.4
O=C(NCCc1ccc(F)cc1)c1ccc(CNC(=O)N2CC[N+](CCCc3ccccc3)(Cc3ccc(Cl)c(Cl)c3)CC2)o1.[I-]	=	2.3

###

Biological target: Leishmania infantum TR (LiTR) (Leishmania infantum, UniProt A4HSF7)
Construct: The TbTR and LiTR genes were subcloned in a pET28b vector; 6-His (cleaved yes); made in house; host or cells: E. coli BL21(DE3), pET28b
Sequence (A4HSF7 1-491): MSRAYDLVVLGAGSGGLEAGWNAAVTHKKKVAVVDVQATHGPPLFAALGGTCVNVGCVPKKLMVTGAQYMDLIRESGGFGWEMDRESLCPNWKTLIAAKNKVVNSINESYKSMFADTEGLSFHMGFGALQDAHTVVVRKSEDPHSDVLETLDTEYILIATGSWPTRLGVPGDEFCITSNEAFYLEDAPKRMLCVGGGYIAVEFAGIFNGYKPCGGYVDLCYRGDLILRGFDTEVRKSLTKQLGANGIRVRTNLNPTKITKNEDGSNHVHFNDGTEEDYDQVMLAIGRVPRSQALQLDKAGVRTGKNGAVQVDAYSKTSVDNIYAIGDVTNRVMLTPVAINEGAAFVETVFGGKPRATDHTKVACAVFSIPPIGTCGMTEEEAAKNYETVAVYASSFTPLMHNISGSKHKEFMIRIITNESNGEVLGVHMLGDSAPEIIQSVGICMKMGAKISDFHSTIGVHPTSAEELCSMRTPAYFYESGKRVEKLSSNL
Assay: LiTR enzymatic inhibition assay (NADPH oxidation at 340 nm)
Format: biochemical
Settings: compound at 10 μM; mean ± SD, n = 3; read-out: LiTR residual activity %
Experimental: Enzymatic inhibition assays were performed in 50 mM HEPES pH 7.4, 40 mM NaCl at 25 °C using a JASCO V650 spectrophotometer equipped with a JASCO EHC 716 Peltier element to ensure controlled temperature. […] For both experiments, the oxidation of NADPH was followed as a decrease in absorbance at 340 nm. […] The IC50 was determined upon fitting the residual activity of TR as a dose–response logistic equation defined as ymin + (ymax – ymin)/(1 + (x/IC50)^slope). […]
measureName: remaining activity at 10 µM (%)

molecule	testedOn	unitAnnotation	quantitativeReadout
O=C(NCCc1ccc(F)cc1)c1ccc(CNC(=O)N2CC[N+](CCCc3ccccc3)(Cc3ccc(Cl)c(Cl)c3)CC2)o1.[I-] [Compound 14]	Leishmania infantum TR (LiTR) (Leishmania infantum, UniProt A4HSF7)	%	10.3
O=C(O)c1ccc(N(Cc2ccc(C(=O)NCCc3ccc(F)cc3)o2)C(=O)N2CCN(CCCc3ccccc3)CC2)cc1 [Compound 11]	Leishmania infantum TR (LiTR) (Leishmania infantum, UniProt A4HSF7)	%	74.5
O=C(NCCc1ccc(F)cc1)c1ccc(CN(C(=O)N2CC[N+](CCCc3ccccc3)(Cc3ccc(Cl)c(Cl)c3)CC2)c2ccc(F)cc2)o1.[I-] [Compound 10]	Leishmania infantum TR (LiTR) (Leishmania infantum, UniProt A4HSF7)	%	22
O=C(NCCc1ccc(F)cc1)c1ccc(CN(C(=O)N2CCN(CCCN3c4ccccc4Sc4ccc(Cl)cc43)CC2)c2ccc(F)cc2)o1 [Compound 6]	Leishmania infantum TR (LiTR) (Leishmania infantum, UniProt A4HSF7)	%	46.9
O=C(NCCc1ccc(F)cc1)c1ccc(CNC(=O)N2CCN(Cc3ccc(Cl)c(Cl)c3)CC2)o1 [Compound 13]	Leishmania infantum TR (LiTR) (Leishmania infantum, UniProt A4HSF7)	%	89.2
O=C(NCCc1ccc(F)cc1)c1ccc(CNC(=O)N2CCN(CCCc3ccccc3)CC2)o1 [Compound 12]	Leishmania infantum TR (LiTR) (Leishmania infantum, UniProt A4HSF7)	%	74.6
C[N+]1(CCCc2ccccc2)CCN(C(=O)N(Cc2ccc(C(=O)NCCc3ccc(F)cc3)o2)c2ccc(F)cc2)CC1.[I-] [Compound 9]	Leishmania infantum TR (LiTR) (Leishmania infantum, UniProt A4HSF7)	%	48.5

###

tested on: L. infantum intramacrophage amastigotes; assay: Ex vivo inhibition of intramacrophage amastigote growth; format: cell-based, Leishmania infantum; conditions: murine macrophages infected with L. infantum amastigotes, 72 h, read-out: intramacrophage amastigote EC50 ± SE (95% CI)
pEC50: −log10 of the molar value.

compound	pEC50
C[N+]1(CCCc2ccccc2)CCN(C(=O)N(Cc2ccc(C(=O)NCCc3ccc(F)cc3)o2)c2ccc(F)cc2)CC1.[I-] [Compound 9]	4.82

###

system: human THP-1-derived macrophages; assay: Cytotoxicity assay on human THP-1-derived macrophages (MTT); type: cell-based; conditions: 72 h, MTT; read-out: human THP-1-derived macrophage CC50 ± SE (95% CI)

molecule	CC50 (µM)
O=C(NCCc1ccc(F)cc1)c1ccc(CN(C(=O)N2CCN(CCCc3ccccc3)CC2)c2ccc(F)cc2)o1 [Compound 5]	6.5

###

Entries and their CC50 at 72 h
test: Cytotoxicity assay on human THP-1-derived macrophages (MTT); assay type: cell-based; details: human, THP-1 cells differentiated into macrophages with PMA, 72 h, MTT; read-out: human THP-1-derived macrophage CC50 ± SE (95% CI)
measureName: CC50 at 72 h (µM)

compound	qual	quantitativeReadout
C[N+]1(CCCc2ccccc2)CCN(C(=O)N(Cc2ccc(C(=O)NCCc3ccc(F)cc3)o2)c2ccc(F)cc2)CC1.[I-]	=	38.4
O=C(Nc1ccc(F)cc1)N1CCN(CCCc2ccccc2)CC1	=	9.6
O=C(NCCc1ccc(F)cc1)c1ccc(CNC(=O)N2CCN(CCCc3ccccc3)CC2)o1	=	37.6
O=C(NCCc1ccc(F)cc1)c1ccc(CN(C(=O)N2CCN(CCCc3ccccc3)CC2)c2ccc(F)cc2)o1	=	9.6
O=C(O)c1ccc(N(Cc2ccc(C(=O)NCCc3ccc(F)cc3)o2)C(=O)N2CCN(CCCc3ccccc3)CC2)cc1	>	50
O=C(NCCc1ccc(F)cc1)c1ccc(CNC(=O)N2CCN(Cc3ccc(Cl)c(Cl)c3)CC2)o1	=	21
C[C@@H]1[C@H](O)[C@@H](C)/C=C/C=C/C=C/C=C/C=C/C=C/C=C/[C@H](O[C@@H]2O[C@H](C)[C@@H](O)[C@H](N)[C@@H]2O)C[C@@H]2O[C@](O)(C[C@@H](O)C[C@@H](O)[C@H](O)CC[C@@H](O)C[C@@H](O)CC(=O)O[C@H]1C)C[C@H](O)[C@H]2C(=O)O [AmpB, Amphotericin B, reference compound]	=	21.1
O=C(NCCc1ccc(F)cc1)c1ccc(CN(C(=O)N2CC[N+](CCCc3ccccc3)(Cc3ccc(Cl)c(Cl)c3)CC2)c2ccc(F)cc2)o1.[I-]	=	16
O=C(NCCc1ccc(F)cc1)c1ccc(CNC(=O)N2CC[N+](CCCc3ccccc3)(Cc3ccc(Cl)c(Cl)c3)CC2)o1.[I-]	=	20.5

###

experiment: Cytotoxicity assay on primary murine macrophages (MTT); format: cell-based, Balb/c mice; conditions: Balb/c, mouse, primary peritoneal exudate macrophages, read-out: primary murine macrophage CC50 ± SE (95% CI)
Entries and their CC50 at 72 h

compound	qual	CC50 at 72 h (µM)
O=C(NCCc1ccc(F)cc1)c1ccc(CNC(=O)N2CCN(Cc3ccc(Cl)c(Cl)c3)CC2)o1	=	12.6
O=C(O)c1ccc(N(Cc2ccc(C(=O)NCCc3ccc(F)cc3)o2)C(=O)N2CCN(CCCc3ccccc3)CC2)cc1	>	50
C[N+]1(CCCc2ccccc2)CCN(C(=O)N(Cc2ccc(C(=O)NCCc3ccc(F)cc3)o2)c2ccc(F)cc2)CC1.[I-]	=	29.9
C[C@@H]1[C@H](O)[C@@H](C)/C=C/C=C/C=C/C=C/C=C/C=C/C=C/[C@H](O[C@@H]2O[C@H](C)[C@@H](O)[C@H](N)[C@@H]2O)C[C@@H]2O[C@](O)(C[C@@H](O)C[C@@H](O)[C@H](O)CC[C@@H](O)C[C@@H](O)CC(=O)O[C@H]1C)C[C@H](O)[C@H]2C(=O)O [AmpB, Amphotericin B, reference compound]	=	16.7
O=C(Nc1ccc(F)cc1)N1CCN(CCCc2ccccc2)CC1	=	12.9
O=C(NCCc1ccc(F)cc1)c1ccc(CN(C(=O)N2CCN(CCCc3ccccc3)CC2)c2ccc(F)cc2)o1	=	12.9
O=C(NCCc1ccc(F)cc1)c1ccc(CNC(=O)N2CC[N+](CCCc3ccccc3)(Cc3ccc(Cl)c(Cl)c3)CC2)o1.[I-]	=	12.7
O=C(NCCc1ccc(F)cc1)c1ccc(CNC(=O)N2CCN(CCCc3ccccc3)CC2)o1	=	26.7
O=C(NCCc1ccc(F)cc1)c1ccc(CN(C(=O)N2CC[N+](CCCc3ccccc3)(Cc3ccc(Cl)c(Cl)c3)CC2)c2ccc(F)cc2)o1.[I-]	=	12.5
